# System under test: T1, Human CD19-his protein (human, UniProt P15391 20-291)
# T1 construct: bought protein; also called human CD19 protein; recombinant human CD19-His; not shown: His tag
# T1 sequence (looked up): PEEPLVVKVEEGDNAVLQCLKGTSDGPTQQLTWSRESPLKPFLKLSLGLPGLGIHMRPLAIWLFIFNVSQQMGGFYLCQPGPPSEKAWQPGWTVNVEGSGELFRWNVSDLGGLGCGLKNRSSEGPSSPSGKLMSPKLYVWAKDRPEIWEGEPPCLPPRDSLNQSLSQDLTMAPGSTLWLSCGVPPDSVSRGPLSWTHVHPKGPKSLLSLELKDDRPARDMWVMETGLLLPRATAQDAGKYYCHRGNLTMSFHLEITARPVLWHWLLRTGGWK
# Assay notes: ELISA, antibody at 0.001 nM
Quantity kind: OD450
Please state the value as a number alone, without comment.

Any idea what its OD450 is? The binder is F3.121.4 (antibody, human IgG1, V domains shown, human-murine chimeric antibody, human IgG1; also called chimeric antibody F3.121.4) VH: QVQLQQPGAELVVPGTSVKLSCKASGYTFTNYWMHWVKQRPGQGLEWIGEIDPSDNYANYNQEFQGKATLTVDKSSSTAYMQLSSLTSDDSAVYYCARHDGYFGALDYWGQGTSVTVSS VL: EIVLTQSPTTMAASPGEKITITCSASSSISSNYLHWYQQKPGFSPKFLIYRTSNLASGVPARFSGSGSGTSYSLTIGTMEAEDVATYYCQQASSIPRMFTFGSGTKLEIK 0.06

Any idea what its OD450 is? The binder is F5.8.6 (antibody, human IgG1, V domains shown, human-murine chimeric antibody, human IgG1) VH: QVQLHQPGAELVMPGASVTLSCKASGYTFTSYWMHWVKQRPGQGLEWIGEIDPSDSYTTYDQKFKGKATLTVDKFSSTAYMQFSSLTSEDSAVYYCARLTGNHLDYWGQGTTLTVSS VL: DIVMTQSHKFMSSSVGDRVSITCKASQDVSPAVAWYQQKPGQSPKLLIYSTSYRNTGVPDRFTGSGSGTDFTFTISSVQAEDLAVYYCQQHYSIPLTFGAGTKLELK 0.06

Any idea what its OD450 is? The binder is F5.2.9 (antibody, human IgG1, V domains shown, human-murine chimeric antibody, human IgG1) VH: QVTLKESGPGILQPSQTLSLTCSFSGFSLSTFGLGVGWVRQPSGKGLEWLAHIWWDDDKYYNPALKSRVTVSKETSKNQVFFKIANVDTADSATYYCARLSRGLRRDVVYAMDHWGQGTSVTVSS VL: DIQMTQTTSSLSASLGDRVTISCRASQDISNYLNWYQQKPDGSVKLLISYVSRLQSGVPSRFRGSGSGTDYSLTISNLDQEDIATYFCQQGIAFPYTFGGGTKLDIK 0.11
